- Tested on: MS2 coat protein
- experimentalDetails: apparent KD of MS2 coat protein; designed switch direction (-1 OFF switch, 1 ON switch): -1; higher = weaker reporter binding
- experimentalContext: input ligand: FMN 200 uM
measuredEndpoint: apparent KD of MS2 coat protein (µM)
Lab book: enter the figure in µM, no units written.

sequenceChain: UUAAAUCAUGUAGGAUAUGCAAGGCGAACCUAUGCAGAAGGACAUGAGGAUCACCCAUGUGCUGCGGUCUGCGUACAGAUCGCU [JL ENG1 1.02] (Eterna round: R96, puzzle: Exclusion NG 1)
unitAbbreviation: µM
apparent KD of MS2 coat protein: 0.503
--
sequenceChain: AGAGCCGUUGUAGGAUAUGCCCUCGGGUGAUGCCGGUCGCCACAUGAGGAUCACCCAUGUAGCGGGCAGAAGGGCAAACUCAGU [Eternabot solution 43] (Eterna round: R96, puzzle: Exclusion NG 2)
unitAbbreviation: µM
apparent KD of MS2 coat protein: 0.0266
--
sequenceChain: GGCACACAUGAGGAUCACCCAUGUGAGGAUAUGGUGCGAUCGUCGAAAGACGAUAGCACUAGAAGGCACAUGCC [Eli x1 4.06] (Eterna round: R97, puzzle: Exclusion 1)
unitAbbreviation: µM
apparent KD of MS2 coat protein: 0.0282

Lookup: So what does the record say about apparent KD of MS2 coat protein for UAUGAUUUAGGAUAUUGUACUGCUGACAUGAGGAUCACCCAUGUAUGCUAACUCGGCCGUCGAGAAGGAGAUUAUG [BotMod 29 - Jieux - Exclusion 5] (Eterna round: R97, puzzle: Exclusion 5) ?
Found: 0.0379

Lookup: So what does the record say about apparent KD of MS2 coat protein for GCAGCAUAGUGUUAUUACACAAUACAUGAGGAUCACCCAUGUGAGGAUAUGGACUGGAUUACAGUCCAGAAGGCACAAAGCUGC [Zipper Style 3] (Eterna round: R96, puzzle: Exclusion NG 3) ?
Found: 0.0217
